Reference source: ChEMBL document CHEMBL3988442

test system: Wolbachia pipientis; assay: Anti-Wolbachia Cell-Based Screen; assay type: functional; design: scale not given: in the data most compounds retested in dose-response had high values; settings: 5 µM
Hit rate of the full screen: of about 48,000 compounds, about 13,000 (27%) showed an effect of 50% or more. Some of the results follow.
# Percent Effect values compiled below
reported-metric: Percent Effect (%)

{"columns": ["compound", "subject-of-test", "val"],
 "data": [
  ["Cn1cc(C(C)(O)CNC(=O)c2ccc(Br)s2)cn1 (configuration not stated)", "Wolbachia pipientis", 0.7525],
  ["O=C(CC1CC1)NCc1cn2c(n1)CN(C(=O)C1CCOCC1)CC2", "Wolbachia pipientis", 7.38],
  ["O=C(O)C(F)(F)F.O=C(O)C(F)(F)F.c1c(CN2CCCC2)nc2n1CCN(CC1CC1)C2", "Wolbachia pipientis", -6.407],
  ["Brc1ccc2[nH]c3c(c2c1)CCCC3c1nn[nH]n1 (configuration not stated)", "Wolbachia pipientis", 153.1],
  ["c1c(CN2CCCCC2)nc2n1CCN(CC1CC1)C2", "Wolbachia pipientis", 5.412],
  ["CN1CCN(Cc2cn3c(n2)CN(C(=O)N2CCOCC2)CC3)CC1.O=C(O)C(F)(F)F.O=C(O)C(F)(F)F", "Wolbachia pipientis", -14.48],
  ["CN1CCN(Cc2cn3c(n2)CN(C2CCOCC2)CC3)CC1.O=C(O)C(F)(F)F.O=C(O)C(F)(F)F.O=C(O)C(F)(F)F", "Wolbachia pipientis", 107]
]}

----------
The following compounds are listed with their measured Percent Effect values.
tested on: Wolbachia pipientis; experiment: Anti-Wolbachia Cell-Based Screen; type: functional; set-up: scale not given: in the data most compounds retested in dose-response had high values; details: 5 µM
Screen size: about 48,000 compounds; about 13,000 (27%) showed an effect of 50% or more. This is one part of the list.

{"columns": ["compound", "Percent Effect"],
 "data": [
  ["CCN(CC)c1ccc(NC(=O)NC(C)Cn2cccn2)cn1 (stereo not given)", "-15.96%"],
  ["COCCn1ccc(NC(=O)Nc2ccc(C)cc2)n1", "3.618%"],
  ["CCOCC(=O)N1CCC2(CC1)CN(Cc1cccnc1)C(=O)CO2", "106.9%"],
  ["O=C1COC2(CCN(C(=O)c3ccoc3)CC2)CN1Cc1cccnc1", "89.17%"],
  ["CC(C)Cn1cnc2ccc(NC(=O)CCCn3cccn3)cc2c1=O", "102.5%"]
]}

----------
tested on: Wolbachia pipientis; assay: Anti-Wolbachia Cell-Based Screen; format: functional; parameters: scale not given: in the data most compounds retested in dose-response had high values; settings: 5 µM
Hit rate of the full screen: of about 48,000 compounds, about 13,000 (27%) showed an effect of 50% or more. This is one part of the list.
Known Percent Effect of a selection of compounds
reported-metric: Percent Effect (%)

{"columns": ["compound", "reported-metric", "display-unit", "val"],
 "data": [
  ["CO[C@H]1CCN(c2ccc(C)nn2)[C@H]1Cc1cnn(C)c1", "Percent Effect", "%", -0.6949],
  ["O=C(c1ccccn1)N1CCC2(COc3ncccc3S(=O)(=O)N2)C1 (stereo not given)", "Percent Effect", "%", 107.8],
  ["CNCCN1C(=O)CC[C@H]2CN(c3cnc4ccccc4n3)CC[C@H]21", "Percent Effect", "%", -7.782],
  ["Cn1cc(C[C@H]2[C@H](O)CCN2C(=O)C2CCCC2)cn1", "Percent Effect", "%", -2.611],
  ["Cc1nccn1C1CCCN(C(=O)c2cc3ccccc3[nH]2)C1 (stereo not given)", "Percent Effect", "%", -11.12],
  ["Cc1ncc2c(n1)C1(CCN(C(=O)C3CC3)CC1)OCC2.Cl", "Percent Effect", "%", 134.7],
  ["C[C@@H]1CN(CC(C)(C)N2CCCCC2)C[C@@]1(O)C1CC1", "Percent Effect", "%", 17.38],
  ["C[C@@H]1CN(Cc2nnc(-c3cccnc3)o2)CC[C@]1(C)O", "Percent Effect", "%", -2.885],
  ["Cn1cc(C[C@H]2[C@@H](O)CCN2C(=O)c2ccc[nH]2)cn1", "Percent Effect", "%", -3.734],
  ["O=C(C1CCC1)N1CCC2(COCc3cnc(N4CCOCC4)nc32)C1 (stereo not given)", "Percent Effect", "%", -15.94],
  ["O=C(c1ccc(Cl)s1)N1CC(c2nc(-c3ccc[nH]c3=O)no2)C1", "Percent Effect", "%", -1.237],
  ["CCc1ccc(CCC(=O)N2CCOCC2c2ncon2)cc1 (stereo not given)", "Percent Effect", "%", 5.794],
  ["CC(C)C(C(=O)NC1CC1)n1cnc2cc(F)c(F)cc21 (stereo not given)", "Percent Effect", "%", 15.81],
  ["CC1CCCN(Cc2ccc(CNC(=O)NCc3ccncc3)cc2)C1 (stereo not given)", "Percent Effect", "%", -7.368],
  ["O=C(C1CCCCC1)N1CCC2(COc3ncccc3S(=O)(=O)N2)C1 (stereo not given)", "Percent Effect", "%", 116.2],
  ["COc1ccc2nc(CCNC(=O)c3cc(CC(C)C)no3)[nH]c2c1", "Percent Effect", "%", 0.008091],
  ["Cc1ccc(N2CC[C@H](O)[C@@H]2Cc2cnn(C)c2)nn1", "Percent Effect", "%", 105.5],
  ["CCO[C@@H]1CCN(C(=O)N(C)C)[C@@H]1Cc1cnn(C)c1", "Percent Effect", "%", 6.075],
  ["Cc1cnc(N2CCOC3(CCCN(C(=O)C(C)C)C3)C2)nc1 (stereo not given)", "Percent Effect", "%", -6.845],
  ["CC(C)(O)CCc1ccc(C(=O)NCCC2CCCOC2)cc1 (stereo not given)", "Percent Effect", "%", -14.7],
  ["Cc1noc(Cl)c1CCC(=O)N1CCN(c2ncccn2)CC1", "Percent Effect", "%", 8.959],
  ["O=C(O)C(F)(F)F.O=C(c1ccncc1)N1CCC2(CC1)C(=O)Nc1ccccc12", "Percent Effect", "%", -18.03],
  ["CCCS(=O)(=O)N1CCN(c2cc(-n3cnc(C)c3C)ncn2)CC1", "Percent Effect", "%", -4.672],
  ["Cc1noc(C)c1CN1CC[C@H]2OCC[C@@H](C(=O)N3CCCO3)[C@H]2C1", "Percent Effect", "%", -12.4],
  ["Cc1ccc(CN2CC[C@H]3C[C@@H](c4nc(C5CC5)cs4)O[C@@H]3C2)o1", "Percent Effect", "%", -2.385],
  ["O=C(Cc1cc(F)cc(Cl)c1)N[C@@H]1CCNC[C@H]1O", "Percent Effect", "%", -5.906],
  ["COCc1ncc(CN(Cc2ccncc2)Cc2ccc(C)s2)cn1", "Percent Effect", "%", 12.8],
  ["O=C(c1ncoc1-c1ccco1)N(Cc1ccco1)CC1CCCO1 (stereo not given)", "Percent Effect", "%", 1.49],
  ["CNc1ccnc(N2C[C@@H](C)[C@](O)(C3CC3)C2)n1", "Percent Effect", "%", 0.4082],
  ["Cc1noc(C)c1CCC(=O)N1CCOCC1CCc1cnccn1 (stereo not given)", "Percent Effect", "%", 115.4],
  ["COCCN(C)C(=O)Nc1ccc2c(ccn2CC(=O)N(C)C)c1", "Percent Effect", "%", 5.654],
  ["Cc1ncc(C(=O)N2CC[C@@]3(O)CCN(C(=O)N(C)C)C[C@H]3C2)cn1", "Percent Effect", "%", -6.772],
  ["Cc1cc(C)c2c(c1)C(NCc1nnc3n1CCC3)CCCO2 (stereo not given)", "Percent Effect", "%", -14.27],
  ["Cc1ccnc(C(NC(=O)c2ccc(O)nc2C)C2CC2)n1 (stereo not given)", "Percent Effect", "%", 19.85],
  ["O=C(c1ccncc1)N1CCC2(COc3ncccc3S(=O)(=O)N2)C1 (stereo not given)", "Percent Effect", "%", 101.3],
  ["CC(=O)N1CCCN(C(=O)CCc2c(C)noc2C)CC1", "Percent Effect", "%", -13.07],
  ["Cc1nccnc1CCC1COCCN1C(=O)CCc1c(C)noc1C (stereo not given)", "Percent Effect", "%", 121.1],
  ["Cc1noc(C)c1CCC(=O)N1CCN(CCn2cccn2)CC1", "Percent Effect", "%", -16.11],
  ["O=C(c1ccoc1)N1CC[C@@H]2[C@@H](CC1)OCCN2c1cccnc1", "Percent Effect", "%", -2.409],
  ["Cc1ccc(CN(C)CC(=O)NC2(C)CCS(=O)(=O)C2)cc1 (stereo not given)", "Percent Effect", "%", 2.715]
]}
